Reference source for all entries: patent US10906897B2

So I've got a bunch of compounds here, and I need their melting point values.

Consider the following illustrative entries.
[
  {
    "SMILES_STRING": "Cc1ccc2c(C3=NC(C)(C)C(=O)c4c(F)cccc43)cnn2c1C",
    "melting point": "139 to 141 °C"
  },
  {
    "SMILES_STRING": "CC1(C)N=C(c2cnc3c(Br)cccn23)c2ccccc2C1=O",
    "melting point": "204 to 205 °C"
  },
  {
    "SMILES_STRING": "CC1(C)N=C(c2cnc3c(Cl)cccn23)c2cccc(F)c2C1(C)C",
    "melting point": "167 to 168 °C"
  },
  {
    "SMILES_STRING": "CC1(C)N=C(c2cnc3c(F)cccn23)c2cccc(F)c2C1=O",
    "melting point": "160 to 161 °C"
  },
  {
    "SMILES_STRING": "CC1(C)Cc2c(Cl)cccc2C(c2cnc3c(OC(F)F)cccn23)=N1",
    "melting point": "114 to 115 °C"
  },
  {
    "SMILES_STRING": "CC1(C)N=C(c2cnc3cc(O)ccn23)c2cccc(F)c2C1(C)C",
    "melting point": "246 to 247 °C"
  }
]

Next up:
Indicate the recorded melting point value for this compound: CC1(C)N=C(c2cnc3c(Cl)c(Cl)ccn23)c2ccccc2C1(F)F
> 210 °C
